Property: composite z-score; scope: individual compounds
Molecular target: Streptavidin (Streptomyces avidinii) (UniProt P22629)
Sequence (P22629 whole entry, looked up): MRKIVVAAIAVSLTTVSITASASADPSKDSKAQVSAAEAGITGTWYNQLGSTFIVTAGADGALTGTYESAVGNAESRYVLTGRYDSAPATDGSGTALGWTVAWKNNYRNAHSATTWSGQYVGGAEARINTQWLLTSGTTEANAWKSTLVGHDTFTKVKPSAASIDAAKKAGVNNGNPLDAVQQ
Test: compounds binding control protein streptavidin – biophysical, small-molecule microarray, 635/667 nm fluorescence, artefact control for SMM compound annotation, primary screen (AID 1147);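 note: signal reflects streptavidin binding to arrayed compounds as a control protein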
Conditions: higher = more signal
endpoint: composite z-score

compound	observedMeasurement
NC(=O)N1C(=O)C2C(C1=O)C1C=C(CCCO)C2C(C2CC2)N1Cc1sc2ccccc2c1Cl (stereo unspecified)	0.526
CCCC=C(CCC)[C@@H](NC(=O)OCC(C)C)c1ccc(C(=O)OC)cc1	0.153
O=C1c2ccccc2[C@@]2(Cc3ccccc3N(Cc3ccccc3)C2=O)[C@H](c2ccc(CO)cc2)N1Cc1ccccc1Cl	-0.463
C=CCOC(=O)[C@@H]1[C@H]2C(=O)O[C@H](c3ccccc3)[C@H](c3ccccc3)N2[C@H](c2ccc(OCCOC(=O)[C@H]3C[C@H]4C(=O)N5CCC[C@H]5C(=O)N4[C@H]3c3cccc(OCCO)c3)cc2)[C@@]12C(=O)Nc1ccc(I)cc12	0.502
COc1ccccc1CN1C(=O)c2ccccc2[C@](Cc2ccccc2I)(C(=O)NCC(C)C)[C@@H]1c1ccc(CO)cc1	-0.738
COC(=O)C(CC#Cc1ccc2c(c1)[C@]1(C(=O)N2)[C@H](C(=O)N2CCc3cc(OC)c(OC)cc3C2)[C@H]2C(=O)O[C@H](c3ccccc3)[C@H](c3ccccc3)N2[C@@H]1c1ccccc1OCCO)C(=O)OC	1

----------
Test: binders of probe aHhip on microarray, primary screen, stem cell growth factor project, biochemical, small-molecule microarray, fluorescence 635/667 (AID 1087);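 note: score merges spot fluorescence at 667nm with spot signal to noise ratio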
Settings: higher = more signal

compound	composite z-score
CC(=O)c1ccc(C(O)C2C=CC3C(=O)N(c4ccccc4)C(=O)C3N2Nc2ccc(C(C)C)cc2)cc1 (stereo unspecified)	-0.106
CCCCC(O)C1C=CC2C(=O)N(c3ccccc3)C(=O)C2N1Nc1ccccc1 (stereo unspecified)	-0.137
COCCOC(=O)N1C(=O)[C@@]2(c3cc(C#CCCO)ccc31)[C@H](c1ccccc1OCCO)N1[C@H](c3ccccc3)[C@H](c3ccccc3)OC(=O)[C@H]1[C@@H]2C(N)=O	-0.0645
COCCOC(=O)N1C(=O)[C@@]2(c3ccccc31)[C@H](c1ccc(O)cc1)N1[C@H](c3ccccc3)[C@H](c3ccccc3)OC(=O)[C@H]1[C@@H]2C(=O)N1CCCCCCC1	3.27
C=CCC(OC(C)=O)[C@@H]1[C@@H](N(Cc2cc3ccccc3o2)C(=O)Cc2ccc(OC)cc2)c2cc(OCCCO)ccc2N1C(=O)c1ccc2ccccc2n1 (stereo partly specified)	0.12
C=CCNC(=O)[C@@H]1[C@H]2C(=O)O[C@H](c3ccccc3)[C@H](c3ccccc3)N2[C@H](c2ccc(OCCO)cc2)[C@@]12C(=O)Nc1ccc(C#CC3(O)CCCCCC3)cc12	-0.0994

----------
Biological target: Focal adhesion kinase 1 (Homo sapiens)
Experiment: PTK2 protein binding on printed compound slides – biochemical, small-molecule microarray, 635/667 nm fluorescence, BSA, DTT, primary screen (AID 1130);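 note: composite of spot emission at 667 nm and signal to noise over triplicate slides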
Settings: 635 nm fluorescence, higher = more signal
endpoint: composite z-score

molecule	observedMeasurement
O=C(NCC(O)CO)C1N=C(c2ccc(OCCCO)cc2)N(c2ccccc2)O1 (stereo not drawn)	-0.102
O=C1O[C@@H](c2ccccc2)[C@@H](c2ccccc2)N2[C@@H](c3ccc(OCCO)cc3)[C@]3(C(=O)Nc4ccc(C#CC5(O)CCCCCC5)cc43)[C@@H](C(=O)Nc3nc4ccccc4s3)[C@H]12	0.676
COC(=O)[C@@]1(Cc2ccc(OC)cc2)[C@H]2c3cc(C(=O)N4CCCC4)n(Cc4ccc(C(F)(F)F)nc4)c3C[C@H]2CN1C(=O)c1ccccc1	1.14
CC(C)N1C(=O)c2ccccc2[C@@H](C(=O)NCC(F)(F)F)[C@@H]1c1ccc(CO)cc1	0.284
O=C1C2C=CC(C(O)c3ccc([N+](=O)[O-])cc3)N(Nc3ccccc3F)C2C(=O)N1c1ccccc1 (stereo not drawn)	-0.119
C=C(COC)C(=O)CC[C@@H](OC(C)=O)c1ccccc1OCCO	-0.517
[N-]=[N+]=Nc1ccccc1C[C@@]1(C(=O)NCC(O)CO)N=C(c2ccc(OCCCO)cc2)O[C@@H]1c1ccccc1 (stereo partly drawn)	0.206
N#Cc1ccc(NN2C(C(O)C3CC=CCC3)C=CC3C(=O)N(c4ccccc4)C(=O)C32)cc1 (stereo not drawn)	0.534
COCCCNC(=O)[C@@]1(CCS(=O)(=O)c2ccccc2)COC(c2ccc(OCCCO)cc2)=N1	0.394
COCCOC(=O)N1C(=O)[C@@]2(c3cc(C#CCCO)ccc31)[C@H](C(N)=O)[C@H]1C(=O)O[C@H](c3ccccc3)[C@H](c3ccccc3)N1[C@@H]2c1ccccc1OCCO	0.425
COC(=O)C(CC#Cc1ccc2c(c1)[C@]1(C(=O)N2)[C@H](c2ccccc2OCCO)N2[C@H](c3ccccc3)[C@H](c3ccccc3)OC(=O)[C@H]2[C@@H]1C(=O)N1CCc2cc(OC)c(OC)cc2C1)C(=O)OC	0.317
CC(C)(C)N1CC=CC23O[C@@H]4C=CCOC(=O)[C@@H]4[C@H]2C(=O)N(CCO)[C@@H]3C1=O (stereo partly drawn)	-0.747
COc1ccc(CCNC(=O)[C@@H]2c3ccccc3C(=O)N(Cc3ccccc3OC)[C@H]2c2ccc(CO)cc2)cc1	0.347

----------
Biological target: Luciferin 4-monooxygenase (Photinus pyralis)
Assay: inhibition of purified Photinus pyralis luciferase – biochemical, luminescence, purified enzyme, 2006 set, primary screen (AID 1141);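 note: cell-free assay with purified firefly luciferase at 100 ng per well in PBS; test concentration not given here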
Details: purified firefly luciferase, SteadyGlo luminescence, 30 min; higher = more signal, called active from +8 up or from −8 down
Classes (z-score): lower bin (below -1), middle bin (-1 to below 0.5), upper bin (0.5 or more)

compound	assignedCategory
COCCCNC(=O)[C@@]1(CCS(=O)(=O)c2ccccc2)COC(c2ccc(OCCCO)cc2)=N1	middle bin
CN(C)CCCNC(=O)[C@@]1(Cc2ccccc2I)c2ccccc2C(=O)N(C2CCCCC2)[C@H]1c1ccc(CO)cc1	middle bin
CC(=O)OCC1C2CC[C@H]3C(OCc4ccc(F)cc4C(F)(F)F)OC[C@]4(C)[C@H]3C2=C(CN4C(=O)OC(C)(C)C)[C@H](C)C1COC(C)=O (stereo not given in full)	upper bin
CCCNC(=O)[C@@]1(c2ccc([N+](=O)[O-])cc2)CC(=O)N(C(C)C)[C@@H]1c1ccc(CO)cc1	middle bin
CO[C@H]1O[C@H](CO)[C@@H](OC(=O)Nc2ccccc2-c2ccccc2)[C@H](OC(=O)Nc2ccccc2)[C@H]1OC(=O)Nc1ccccc1	middle bin
CC(C)NC(=O)[C@@]1(C)c2ccccc2C(=O)N(Cc2ccccc2)[C@H]1c1ccc(CO)cc1	lower bin
C=CCOC(=O)[C@@H]1[C@H]2C(=O)O[C@H](c3ccccc3)[C@H](c3ccccc3)N2[C@H](c2ccc(OCCOC(=O)[C@H]3C[C@H]4C(=O)NCC(=O)N4[C@H]3c3cccc(OCCO)c3)cc2)[C@@]12C(=O)Nc1ccc(I)cc12	lower bin
CCCCCCc1nc(Cc2cc(OC)c(OC)c(OC)c2)cc2c1[Si](C(C)C)(C(C)C)O[C@H]2c1ccccc1	upper bin
COC(=O)[C@@]1(Cc2ccccc2)N=C(c2ccc(OCCCO)cc2)O[C@H]1c1ccccc1CN=[N+]=[N-]	lower bin
COCC(=C=CC[C@H](O)c1ccccc1OCCO)C[C@H](O)COCc1ccccc1	lower bin
O=C1C2C=CC(C(O)c3cccs3)N(Nc3ccc([N+](=O)[O-])cc3)C2C(=O)N1c1ccccc1 (stereo not given)	upper bin
CC1CC/C=C\[C@H]2OC34C=CCN(C(C)(C)C)C(=O)[C@H]3N(CCCO)C(=O)[C@@H]4C2C(=O)O1 (stereo not given in full)	middle bin
Cc1ccc(F)cc1S(=O)(=O)N[C@H]1CCN(Cc2ccc(OC(C)C)cc2)C1	middle bin
C=C(COC)/C(=C/C[C@@H](OC(C)=O)c1ccccc1OCCO)c1cnc2ccccc2c1	lower bin
CCOC(=O)C1=CC[C@@H](c2ccc(OC)cc2)N(S(=O)(=O)c2ccc(C)cc2)[C@H]1c1ccc(C)cc1	upper bin
O=C(NCC(O)CO)C1N=C(c2ccc(OCCCO)cc2)N(c2ccccc2)O1 (stereo not given)	lower bin
O=C1OCCC=C[C@H]2OC34C=CCN(c5ccc6ccccc6c5)C(=O)[C@H]3N(CCO)C(=O)[C@@H]4C12 (stereo not given in full)	middle bin
O=C1C[C@@](C(=O)NCc2ccccc2)(c2ccc([N+](=O)[O-])cc2)[C@@H](c2ccc(CO)cc2)N1C1CCCCC1	middle bin
CO[C@H]1O[C@H](CO)[C@@H](OC(=O)Nc2ccccc2)[C@H](OC(=O)Nc2ccccc2)[C@H]1OC(=O)Nc1ccccc1	upper bin
O=C1NC(=O)C2C1C=CC(C(O)c1ccc([N+](=O)[O-])cc1)N2Nc1ccccn1 (stereo not given)	lower bin
COc1ccc(CCNC(=O)[C@@H]2c3ccccc3C(=O)N(Cc3ccccc3OC)[C@H]2c2ccc(CO)cc2)cc1	middle bin
C=CCC(OC(C)=O)[C@@H]1[C@@H](N(Cc2ccc(-c3cccc(C(F)(F)F)c3)o2)C(=O)Cc2ccc(F)cc2)c2cc(OCCCO)ccc2N1C(=O)Cc1ccc2ccccc2c1 (stereo not given in full)	middle bin
COC(=O)[C@@]1(Cc2ccc(F)cc2)[C@H]2c3cc(C(=O)N4CCCC4)n(Cc4cc(F)cc5c4OCOC5)c3C[C@H]2CN1C(=O)c1ccccc1	upper bin
CC(C)C(=C=CC[C@H](O)c1ccccc1OCCO)C[C@H](O)COCc1ccccc1	middle bin
O=C1C2C=CC(C(O)c3ccc([N+](=O)[O-])cc3)N(Nc3ccccc3F)C2C(=O)N1c1ccccc1 (stereo not given)	upper bin
Cc1ccc(S[C@]2(C(=O)NC3CC3)CC(=O)N(C(C)C)[C@@H]2c2ccc(CO)cc2I)cc1	upper bin
O=C1C[C@@](C(=O)NC2CC2)(c2ccc([N+](=O)[O-])cc2)[C@@H](c2ccc(CO)cc2)N1C1CCCCC1	upper bin
O=C1O[C@@H](c2ccccc2)[C@@H](c2ccccc2)N2[C@@H](c3ccc(OCCO)cc3)[C@]3(C(=O)Nc4ccc(C#CCCO)cc43)[C@@H](C(=O)O)[C@H]12	lower bin
O=C1C[C@@](C(=O)O)(c2ccc([N+](=O)[O-])cc2)[C@@H](c2ccc(CO)cc2)N1C1CCCCC1	lower bin
CC(C)(C)N1CC=CC23O[C@@H]4/C=C\CCCOC(=O)C4[C@H]2C(=O)N(CCCCCO)[C@@H]3C1=O (stereo not given in full)	middle bin
